target: AR protein (Homo sapiens, UniProt P10275); construct: endogenous in cells; host or cells: VCaP; experiment: Western blotting of AR protein degradation in VCaP cells; format: cell-based; details: 0.001 μM
Sequence (P10275 whole entry): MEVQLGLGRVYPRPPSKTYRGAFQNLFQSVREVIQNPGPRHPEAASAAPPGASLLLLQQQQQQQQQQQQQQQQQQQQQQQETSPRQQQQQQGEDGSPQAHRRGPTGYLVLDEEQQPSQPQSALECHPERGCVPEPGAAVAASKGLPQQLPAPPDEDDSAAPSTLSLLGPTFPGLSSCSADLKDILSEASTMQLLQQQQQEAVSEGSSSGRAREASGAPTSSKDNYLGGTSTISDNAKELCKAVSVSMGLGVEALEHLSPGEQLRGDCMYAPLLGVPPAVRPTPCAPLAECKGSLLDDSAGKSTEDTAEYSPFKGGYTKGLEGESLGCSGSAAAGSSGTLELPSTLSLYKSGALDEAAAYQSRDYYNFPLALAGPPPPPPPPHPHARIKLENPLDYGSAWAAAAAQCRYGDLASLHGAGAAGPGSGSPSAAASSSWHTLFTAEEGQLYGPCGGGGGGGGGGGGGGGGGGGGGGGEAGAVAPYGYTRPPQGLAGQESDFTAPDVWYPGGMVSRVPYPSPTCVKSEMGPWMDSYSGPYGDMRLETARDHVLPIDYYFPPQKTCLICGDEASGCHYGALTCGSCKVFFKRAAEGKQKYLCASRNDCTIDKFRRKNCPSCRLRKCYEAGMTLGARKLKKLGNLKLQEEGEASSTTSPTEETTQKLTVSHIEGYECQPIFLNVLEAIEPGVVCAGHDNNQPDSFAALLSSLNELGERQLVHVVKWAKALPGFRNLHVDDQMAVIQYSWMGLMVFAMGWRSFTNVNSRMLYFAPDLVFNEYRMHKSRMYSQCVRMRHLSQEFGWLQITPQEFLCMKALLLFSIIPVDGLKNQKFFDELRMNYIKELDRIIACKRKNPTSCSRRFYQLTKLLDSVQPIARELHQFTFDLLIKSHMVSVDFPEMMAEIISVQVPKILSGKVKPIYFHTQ
Parameter: % AR protein degradation in VCaP Cells (%)
One number for each entry, in %.

N#Cc1ccc(O[C@H]2CC[C@H](NC(=O)c3ccc(N4CCN(CCCNc5ccc6c(c5)C(=O)N(C5CCC(=O)NC5=O)C6=O)CC4)cc3)CC2)cc1Cl (some centres unmarked)	18
N#Cc1ccc(N[C@H]2CC[C@H](NC(=O)c3ccc(N4CCC(N5CCN(c6ccc7c(c6)C(=O)N(C6CCC(=O)NC6=O)C7=O)CC5)CC4)cc3)CC2)cc1Cl (some centres unmarked)	51
N#Cc1ccc(O[C@H]2CC[C@H](NC(=O)c3ccc(NCCCCCNc4ccc5c(c4)C(=O)N(C4CCC(=O)NC4=O)C5=O)cc3)CC2)cc1Cl (some centres unmarked)	59
CN(c1ccc(C#N)c(Cl)c1)[C@H]1CC[C@H](NC(=O)c2ccc(N3CCC(CN4CCN(c5ccc6c(c5)C(=O)N(C5CCC(=O)NC5=O)C6=O)CC4)CC3)cc2)CC1 (some centres unmarked)	55

Kindly note the recorded % AR protein degradation in VCaP Cells for N#Cc1ccc(O[C@H]2CC[C@H](NC(=O)c3ccc(N4CCN(CC5CN(c6ccc7c(c6)C(=O)N(C6CCC(=O)NC6=O)C7=O)C5)CC4)cc3)CC2)cc1Cl (some centres unmarked) , which is 38

---

experiment: PK parameters in male mice (Table 9); assay type: in vivo; details: ICR, mouse, in vivo, PO 3 mg/kg, read-out: Tmax
Please respond with reported Tmax for every item in the list.
Give your result as the value with the unit written after it.

CN(c1ccc(C#N)c(Cl)c1)[C@H]1CC[C@H](NC(=O)c2ccc(N3CCN(CC4CCN(c5ccc6c(c5)C(=O)N(C5CCC(=O)NC5=O)C6=O)CC4)CC3)cc2)CC1 (stereo partly drawn) [compound 233]	4 h

Please report Tmax for every entry that follows.
1. N#Cc1ccc(O[C@H]2CC[C@H](NC(=O)c3ccc(N4CCN(C5CCN(c6ccc7c(c6)C(=O)N(C6CCC(=O)NC6=O)C7=O)CC5)CC4)cc3)CC2)cc1Cl (stereo partly drawn) [compound 222]
2. CCN(c1ccc(C#N)c(Cl)c1)[C@H]1CC[C@H](NC(=O)c2ccc(N3CCC(N4CCN(c5ccc6c(c5)C(=O)N(C5CCC(=O)NC5=O)C6=O)CC4)CC3)cc2)CC1 (stereo partly drawn) [compound 231]

1: 6 h; 2: 1.7 h

---

assay: PK parameters in male mice (Table 9); format: in vivo; details: ICR, mouse, in vivo, IV 2 mg/kg
Parameter: half-life (h)
Numbers only, in h.

For reference, reported half-life for N#Cc1ccc(O[C@H]2CC[C@H](NC(=O)c3ccc(N4CCN(C5CN(c6ccc7c(c6)C(=O)N(C6CCC(=O)NC6=O)C7=O)C5)CC4)cc3)CC2)cc1Cl (stereo partly shown) stands at 6.58

---

biological target: AR protein (Homo sapiens); construct: endogenous in cells; host or cells: VCaP; assay: Western blotting of AR protein degradation in VCaP cells; type: cell-based; conditions: 0.001 μM
Binary call on % AR protein degradation in VCaP Cells with cut-off 60%: strictly below means true (1), and equality or higher means false (0).

Reference set (2 entries):
CC(O)(CS(=O)(=O)c1ccc(N2CCN(C3CCN(c4ccc5c(c4)C(=O)N(C4CCC(=O)NC4=O)C5=O)CC3)CC2)cc1)C(=O)Nc1ccc(C#N)c(C(F)(F)F)c1 (centres unmarked)	true (1)
N#Cc1ccc(O[C@H]2CCC[C@H](NC(=O)c3ccc(N4CCC(N5CCN(c6ccc7c(c6)C(=O)N(C6CCC(=O)NC6=O)C7=O)CC5)CC4)cc3)CCC2)cc1Cl (some centres unmarked)	true (1)

For this molecule, is % AR protein degradation in VCaP Cells lower than 60%? CN(c1ccc(C#N)c(Cl)c1)[C@H]1CC[C@H](NC(=O)c2ccc(N3CC(N4CCN(c5ccc6c(c5)C(=O)N(C5CCC(=O)NC5=O)C6=O)CC4)C3)cc2)CC1 (some centres unmarked) false (0)

Please state whether % AR protein degradation in VCaP Cells is below 60% for CN(c1ccc(C#N)c(Cl)c1)[C@H]1CC[C@H](NC(=O)c2ccc(N3CCN(CC4CCN(c5ccc6c(c5)C(=O)N(C5CCC(=O)NC5=O)C6=O)CC4)CC3)cc2)CC1 (some centres unmarked) true (1)

% AR protein degradation in VCaP Cells strictly < 60% for this molecule? N#Cc1ccc(O[C@H]2CC[C@H](NC(=O)c3ccc(NCCCCCCNc4ccc5c(c4)C(=O)N(C4CCC(=O)NC4=O)C5=O)cc3)CC2)cc1Cl (some centres unmarked) true (1)

For N#Cc1ccc(O[C@H]2CC[C@H](NC(=O)c3ccc(NCCCCCCCCCCNc4ccc5c(c4)C(=O)N(C4CCC(=O)NC4=O)C5=O)cc3)CC2)cc1Cl (some centres unmarked) , is the recorded % AR protein degradation in VCaP Cells below the cut-off of 60%? true (1)

% AR protein degradation in VCaP Cells strictly < 60% for this molecule? N#Cc1ccc(O[C@H]2CC[C@H](NC(=O)c3ccc(N4CCN(C5CCN(c6ccc7c(c6)C(=O)N(C6CCC(=O)NC6=O)C7=O)CC5)CC4)cc3)CC2)cc1Cl (some centres unmarked) false (0)

---

molecular target: AR protein (Homo sapiens); construct: endogenous in cells; host or cells: VCaP; assay: Western blotting of AR protein degradation in VCaP cells; type: cell-based; details: 1 μM
Give measured % AR protein degradation in VCaP Cells for each item. Keep answers brief.
Answers are plain numbers, in %.

Some compounds with recorded % AR protein degradation in VCaP Cells:
N#Cc1ccc(O[C@H]2CC[C@H](NC(=O)c3ccc(NCCCCCCCNc4ccc5c(c4)C(=O)N(C4CCC(=O)NC4=O)C5=O)cc3)CC2)cc1Cl (stereo partly shown)	38
N#Cc1ccc(O[C@H]2CC[C@H](NC(=O)c3ccc(N4CCN(CCCCNc5ccc6c(c5)C(=O)N(C5CCC(=O)NC5=O)C6=O)CC4)cc3)CC2)cc1Cl (stereo partly shown)	62
CN(c1ccc(C#N)c(Cl)c1)[C@H]1CC[C@H](NC(=O)c2ccc(N3CCN(C4CN(c5ccc6c(c5)C(=O)N(C5CCC(=O)NC5=O)C6=O)C4)CC3)cc2)CC1 (stereo partly shown)	78
N#Cc1ccc(O[C@H]2CC[C@H](NC(=O)c3ccc(N4CCN(CCNc5ccc6c(c5)C(=O)N(C5CCC(=O)NC5=O)C6=O)CC4)cc3)CC2)cc1Cl (stereo partly shown)	21
N#Cc1ccc(O[C@H]2CC[C@H](NC(=O)c3ccc(N4CCN(C5CCN(c6ccc7c(c6)C(=O)N(C6CCC(=O)NC6=O)C7=O)CC5)CC4)cc3)CC2)cc1Cl (stereo partly shown)	43
N#Cc1ccc(O[C@@H]2CCC[C@@H](NC(=O)c3ccc(N4CCC(N5CCN(c6ccc7c(c6)C(=O)N(C6CCC(=O)NC6=O)C7=O)CC5)CC4)cc3)CC2)cc1Cl (stereo partly shown)	43

Please go through the list and note % AR protein degradation in VCaP Cells for each compound.
1. N#Cc1ccc(O[C@H]2CC[C@H](NC(=O)c3ccc(NCCCCNc4ccc5c(c4)C(=O)N(C4CCC(=O)NC4=O)C5=O)cc3)CC2)cc1Cl (stereo partly shown)
2. CC1(C)C(=O)N(c2ccc(C#N)c(C(F)(F)F)c2)C(=S)N1c1ccc(C(=O)N2CCN(C3CCN(c4ccc5c(c4)C(=O)N(C4CCC(=O)NC4=O)C5=O)CC3)CC2)c(F)c1 (stereo not shown)
3. CN(c1ccc(C#N)c(Cl)c1)[C@H]1CC[C@H](NC(=O)c2ccc(N3CC(CN4CCN(c5ccc6c(c5)C(=O)N(C5CCC(=O)NC5=O)C6=O)CC4)C3)cc2)CC1 (stereo partly shown)
4. N#Cc1ccc(O[C@H]2CC[C@H](NC(=O)c3ccc(N4CCN(CCCNc5ccc6c(c5)C(=O)N(C5CCC(=O)NC5=O)C6=O)CC4)cc3)CC2)cc1Cl (stereo partly shown)
5. CC(O)(CS(=O)(=O)c1ccc(N2CCN(C3CCN(c4ccc5c(c4)C(=O)N(C4CCC(=O)NC4=O)C5=O)CC3)CC2)cc1)C(=O)Nc1ccc(C#N)c(C(F)(F)F)c1 (stereo not shown)
6. N#Cc1ccc(O[C@H]2CC[C@H](NC(=O)c3ccc(NCCCCCCCCNc4ccc5c(c4)C(=O)N(C4CCC(=O)NC4=O)C5=O)cc3)CC2)cc1Cl (stereo partly shown)

1. 38
2. 31
3. 94
4. 59
5. 27
6. 46

Look at each compound and report its % AR protein degradation in VCaP Cells.
1. N#Cc1ccc(N[C@H]2CC[C@H](NC(=O)c3ccc(N4CCC(N5CCN(c6ccc7c(c6)C(=O)N(C6CCC(=O)NC6=O)C7=O)CC5)CC4)cc3)CC2)cc1Cl (stereo partly shown)
2. CN(c1ccc(C#N)c(Cl)c1)[C@H]1CC[C@H](NC(=O)c2ccc(N3CCN(CC4CCN(c5ccc6c(c5)C(=O)N(C5CCC(=O)NC5=O)C6=O)CC4)CC3)cc2)CC1 (stereo partly shown)
3. N#Cc1ccc(O[C@H]2CC[C@H](NC(=O)c3ccc(N4CCC(N5CCN(c6ccc7c(c6)C(=O)N(C6CCC(=O)NC6=O)C7=O)CC5)CC4)cc3)C2)cc1Cl (stereo partly shown)
4. N#Cc1ccc(O[C@H]2CC[C@H](NC(=O)c3ccc(NCCCCCCCCCCCNc4ccc5c(c4)C(=O)N(C4CCC(=O)NC4=O)C5=O)cc3)CC2)cc1Cl (stereo partly shown)
5. N#Cc1ccc(O[C@H]2CC[C@H](NC(=O)c3ccc(NCCCCCCCCCNc4ccc5c(c4)C(=O)N(C4CCC(=O)NC4=O)C5=O)cc3)CC2)cc1Cl (stereo partly shown)
6. N#Cc1ccc(O[C@H]2CC[C@H](NC(=O)c3ccc(N4CCN(CCCCCNc5ccc6c(c5)C(=O)N(C5CCC(=O)NC5=O)C6=O)CC4)cc3)CC2)cc1Cl (stereo partly shown)
7. N#Cc1ccc(O[C@H]2CCC[C@H](NC(=O)c3ccc(N4CCC(N5CCN(c6ccc7c(c6)C(=O)N(C6CCC(=O)NC6=O)C7=O)CC5)CC4)cc3)CCC2)cc1Cl (stereo partly shown)

[43, 76, 18, 35, 53, 34, 47]

Reference source: patent US20230233690A1
